- Tested on: Klebsiella pneumoniae
- assay.info: Antibacterial activity against Klebsiella pneumoniae assessed as reduction in bacterial growth incubated for 24 hrs by broth microdilution method
- Assay type: functional
Listing: MIC of selected compounds
Please state the figure in µg/mL; there is no need to write the unit.

Reference set, count: 5
{"compound": "CO/N=C(\\C(=O)N[C@@H]1C(=O)N2C(C(=O)O)=C(CSc3nc(=O)c(O)nn3C)CS[C@H]12)c1csc(N)n1 [CEFTRIAXONE]", "test.value": 8190}
{"compound": "C[C@@H](O)[C@H]1C(=O)N2C(C(=O)O)=C(S[C@@H]3CN[C@H](C(=O)N(C)C)C3)[C@H](C)[C@H]12 [MEROPENEM]", "test.value": 256}
{"compound": "CO/N=C(\\C(=O)N[C@@H]1C(=O)N2C(C(=O)O)=C(COC(C)=O)CS[C@H]12)c1csc(N)n1 [CEFOTAXIME]", "test.value": 16000}
{"compound": "CC1(C)S[C@@H]2[C@H](NC(=O)[C@H](N)c3ccccc3)C(=O)N2[C@H]1C(=O)O [AMPICILLIN]", "test.value": 8190}
{"compound": "Cc1nnc(SCC2=C(C(=O)O)N3C(=O)[C@@H](NC(=O)Cn4cnnn4)[C@H]3SC2)s1 [CEFAZOLIN]", "test.value": 4100}

# ---- query compound ----
Q. Look up MIC of CN(C(=S)NN=C(c1ccccn1)c1ccccn1)C1CCCCC1 and report it.
A. 32

* * *

- Tested on: Pseudomonas aeruginosa
- assay.info: Antibacterial activity against Carbapenem-resistant Pseudomonas aeruginosa assessed as reduction in bacterial growth incubated for 24 hrs by broth microdilution method
- Format: functional
Listing: MIC of selected compounds
Please state the figure in µg/mL; there is no need to write the unit.

{"compound": "CO/N=C(\\C(=O)N[C@@H]1C(=O)N2C(C(=O)O)=C(CSc3nc(=O)c(O)nn3C)CS[C@H]12)c1csc(N)n1 [CEFTRIAXONE]", "system.tested": "Pseudomonas aeruginosa", "measure.name": "MIC", "test.value": 64}
{"compound": "C[C@@H](O)[C@H]1C(=O)N2C(C(=O)O)=C(S[C@@H]3CN[C@H](C(=O)N(C)C)C3)[C@H](C)[C@H]12 [MEROPENEM]", "system.tested": "Pseudomonas aeruginosa", "measure.name": "MIC", "test.value": 8}

# ---- query compound ----
Q. Look up MIC of CN(C(=S)NN=C(c1ccccn1)c1ccccn1)C1CCCCC1 and report it.
A. 16

* * *

- Test system: Pseudomonas aeruginosa
- assay.info: Antibacterial activity against Carbapenem-resistant Pseudomonas aeruginosa assessed as reduction in bacterial growth incubated for 24 hrs by broth microdilution method
- Format: functional
measure.name: MIC

Reference set, count: 2
{"smiles.code": "CC1(C)S[C@@H]2[C@H](NC(=O)[C@H](N)c3ccccc3)C(=O)N2[C@H]1C(=O)O", "measure.name": "MIC", "test.value": "> 16 mg/mL"}
{"smiles.code": "Cc1nnc(SCC2=C(C(=O)O)N3C(=O)[C@@H](NC(=O)Cn4cnnn4)[C@H]3SC2)s1", "measure.name": "MIC", "test.value": "> 16 mg/mL"}

Q. Look up MIC of CO/N=C(\C(=O)N[C@@H]1C(=O)N2C(C(=O)O)=C(COC(C)=O)CS[C@H]12)c1csc(N)n1 and report it.
A. > 16 mg/mL
